- target under test: human PTP-1B (Homo sapiens)
- Construct: recombinant human PTP-1B[1-298] or PTP-1B[1-322]
- Sequence (P18031 1-298 limits assumed): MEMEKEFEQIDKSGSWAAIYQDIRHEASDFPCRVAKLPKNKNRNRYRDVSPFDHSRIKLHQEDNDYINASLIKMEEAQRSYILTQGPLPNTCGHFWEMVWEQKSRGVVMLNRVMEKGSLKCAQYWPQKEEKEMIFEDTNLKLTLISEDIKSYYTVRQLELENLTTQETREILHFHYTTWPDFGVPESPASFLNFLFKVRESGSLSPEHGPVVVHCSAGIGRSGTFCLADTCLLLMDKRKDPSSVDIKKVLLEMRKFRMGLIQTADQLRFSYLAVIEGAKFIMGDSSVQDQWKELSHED
- test summary: PTP-1B inhibitory activity in vitro (IC50)
- Format: biochemical
attribute measured: IC50 (nM)

O=C1CN(c2cc3cc(C4CCCC4)ccc3cc2O)S(=O)(=O)N1 [Example No. 22]; 85
O=C1CN(c2cc3cc(C4CCCCC4)ccc3cc2O)S(=O)(=O)N1 [Example No. 23]; 113
